Value source: patent US9242970B2

- assayed target: UniProt:O43614
- assay text: In vitro assay: intracellular calcium measurements (FLIPR), antagonistic activity
- Format: cell-based
- experimental conditions: CHO cells, 3 nM orexin-A, compound incubation 120 min; marked values are geometric means of n = 2-6; read-out: IC50 OX2
metric: pIC50
// pIC50 is dimensionless: -log10 of concentration (M)

Input line: Entry CCOc1cccc(F)c1C1CC(C)C(=O)N1Cc1ccc2ccccc2n1 (centres unmarked) : reported pIC50 = ?
Output line: 7.15

---

Below is a list of entries, each paired with its recorded pIC50 value.
- assayed target: human orexin-2 receptor (Homo sapiens (Human))
- Sequence (O43614 whole entry): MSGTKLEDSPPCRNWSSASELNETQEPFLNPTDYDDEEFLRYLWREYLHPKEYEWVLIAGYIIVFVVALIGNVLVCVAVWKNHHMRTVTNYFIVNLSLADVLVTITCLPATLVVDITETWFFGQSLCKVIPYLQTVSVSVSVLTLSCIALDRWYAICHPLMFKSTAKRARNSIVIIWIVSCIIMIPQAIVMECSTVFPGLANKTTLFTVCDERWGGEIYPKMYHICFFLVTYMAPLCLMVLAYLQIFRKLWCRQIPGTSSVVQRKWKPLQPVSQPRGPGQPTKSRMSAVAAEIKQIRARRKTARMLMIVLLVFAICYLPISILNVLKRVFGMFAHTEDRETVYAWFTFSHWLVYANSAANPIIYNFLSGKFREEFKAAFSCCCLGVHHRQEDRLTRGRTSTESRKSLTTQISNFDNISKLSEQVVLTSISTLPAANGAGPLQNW
- assay text: In vitro assay: intracellular calcium measurements (FLIPR), antagonistic activity
- Format: cell-based
- experimental conditions: CHO cells, 3 nM orexin-A, compound incubation time of 10 min; marked values are geometric means of n = 2-6; read-out: IC50 OX2
// pIC50 is dimensionless: -log10 of concentration (M)

compound: COc1cccc(OCC(O)CO)c1C1CCCC(=O)N1Cc1ccc(OC(F)(F)F)cc1 (centres unmarked)
assayed target: human orexin-2 receptor (Homo sapiens (Human))
metric: pIC50
reading: 6.13

compound: COc1cccc(OC)c1C1CCCC(=O)N1Cc1ccc(N2CCCC2)cc1 (centres unmarked)
assayed target: human orexin-2 receptor (Homo sapiens (Human))
metric: pIC50
reading: 6.88

compound: COc1cccc(OC)c1C1COCC(=O)N1Cc1ccc(OC(F)(F)F)cc1 (centres unmarked)
assayed target: human orexin-2 receptor (Homo sapiens (Human))
metric: pIC50
reading: 7.07

compound: COc1cccc(OC)c1C1CC(C)C(=O)N1Cc1cccc(OC(F)(F)F)c1 (centres unmarked)
assayed target: human orexin-2 receptor (Homo sapiens (Human))
metric: pIC50
reading: 6.97

compound: COc1cccc(Cl)c1C1CCCC(=O)N1Cc1ccc(OC(F)(F)F)cc1 (centres unmarked)
assayed target: human orexin-2 receptor (Homo sapiens (Human))
metric: pIC50
reading: 6.81

compound: COc1ccc2cc(CN3C(=O)CCCC3c3c(OC)cccc3OC)ccc2c1 (centres unmarked)
assayed target: human orexin-2 receptor (Homo sapiens (Human))
metric: pIC50
reading: 7.18

Input line: Entry COc1cccc(OC)c1C1CCC(=O)N1Cc1ccc(F)cc1 (centres unmarked) : reported pIC50 = ?
Output line: 5.88

Input line: Proceed to COc1cccc(OCCO)c1C1CCCC(=O)N1Cc1ccc(OC(F)(F)F)cc1 (centres unmarked)
Output line: 7.07

Input line: Proceed to COc1cccc(OC)c1C1CCC(=O)N1Cc1ccc(OC(F)(F)F)cc1 (centres unmarked)
Output line: 6.80

Input line: Proceed to O=C1CCCC(c2c(F)cccc2Cl)N1Cc1ccc(OC(F)(F)F)cc1 (centres unmarked)
Output line: 5.92

Input line: Proceed to COc1cccc(OC)c1C1CCC(=O)N1Cc1ccc2ccccc2c1 (centres unmarked)
Output line: 6.95

Input line: Proceed to COc1cccc(OC(C)C)c1C1CCCC(=O)N1Cc1ccc(OC(F)(F)F)cc1 (centres unmarked)
Output line: 7.07

Input line: Proceed to COc1cccc(F)c1C1CCCC(=O)N1Cc1ccc(OC(F)(F)F)cc1 (centres unmarked)
Output line: 6.81

Input line: Proceed to COc1cccc(OC)c1C1CCCC(=O)N1Cc1ccc2nonc2c1 (centres unmarked)
Output line: 6.12

Input line: Proceed to CCOc1ccc(CN2C(=O)CCCC2c2c(OC)cccc2OC)cc1 (centres unmarked)
Output line: 7.19

Input line: Proceed to COc1cccc(OC)c1C1CCCC(=O)N1Cc1ccc(OC(F)(F)F)c(Cl)c1 (centres unmarked)
Output line: 7.21

Input line: Proceed to COc1cccc(OC)c1C1CCCC(=O)N1Cc1ccc(-c2ccccc2)cc1 (centres unmarked)
Output line: 7.14

---

- assayed target: human orexin-1 receptor (Homo sapiens (Human), UniProt O43613)
- Sequence (O43613 whole entry): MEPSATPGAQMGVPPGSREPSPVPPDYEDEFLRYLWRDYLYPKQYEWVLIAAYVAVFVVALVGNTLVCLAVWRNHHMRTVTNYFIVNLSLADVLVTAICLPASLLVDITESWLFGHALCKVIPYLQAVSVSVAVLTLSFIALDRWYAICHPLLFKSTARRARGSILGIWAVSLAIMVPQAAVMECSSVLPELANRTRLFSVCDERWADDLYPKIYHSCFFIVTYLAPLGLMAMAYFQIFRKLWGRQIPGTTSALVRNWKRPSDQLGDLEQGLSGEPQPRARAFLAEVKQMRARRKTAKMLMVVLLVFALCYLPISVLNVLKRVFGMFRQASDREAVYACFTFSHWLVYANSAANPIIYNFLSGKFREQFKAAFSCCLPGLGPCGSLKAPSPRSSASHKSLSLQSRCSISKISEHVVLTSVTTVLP
- assay text: In vitro assay: intracellular calcium measurements (FLIPR), antagonistic activity
- Format: cell-based
- experimental conditions: CHO cells, 3 nM orexin-A, compound incubation 120 min; marked values are geometric means of n = 2-6; read-out: IC50 OX1
pIC50: −log10 of the molar value.
# label = 1 (yes) if pIC50 >= 6 else 0 (no)

# example entries with known answers
compound: COc1cccc(OC)c1C1CCCC(=O)N1Cc1cccc(-c2cncs2)c1 (stereo not drawn)
assayed target: human orexin-1 receptor (Homo sapiens (Human), UniProt O43613)
answer label: 1 (yes)

compound: COc1cccc(F)c1C1CC(C)C(=O)N1Cc1ccc2ccccc2n1 (stereo not drawn)
assayed target: human orexin-1 receptor (Homo sapiens (Human), UniProt O43613)
answer label: 0 (no)

Input line: hey, is pIC50 for this one >= 6? COc1cccc(OC)c1[C@@H]1C[C@H](Cl)C(=O)N1Cc1ccc2oc3ccccc3c2c1 (racemic)
Output line: 1 (yes)

---

- assayed target: human orexin-2 receptor (Homo sapiens (Human))
- assay text: In vitro assay: intracellular calcium measurements (FLIPR), antagonistic activity
- Type: cell-based
- experimental conditions: CHO cells, 3 nM orexin-A, compound incubation 120 min; marked values are geometric means of n = 2-6; read-out: IC50 OX2
metric: IC50 (nM)
Write the answer as a number in nM, unit excluded.

Input line: Entry COc1cccc(OC)c1C1CCC(=O)N1Cc1cccc(Oc2ccccc2)c1 (stereo not drawn) : reported IC50 = ?
Output line: 65

Input line: Proceed to COc1cccc(OC)c1C1CC(C)C(=O)N1Cc1cccc(OC(C)C)c1 (stereo not drawn)
Output line: 93

Input line: Proceed to COc1cccc(OC)c1C1CC(C)C(=O)N1Cc1cccc(-n2cccn2)n1 (stereo not drawn)
Output line: 1180

---

- assayed target: human orexin-1 receptor (Homo sapiens (Human), UniProt O43613)
- assay text: In vitro assay: intracellular calcium measurements (FLIPR), antagonistic activity
- Format: cell-based
- experimental conditions: CHO cells, 3 nM orexin-A, compound incubation 120 min; marked values are geometric means of n = 2-6; read-out: IC50 OX1
- Procedure: In Vitro Assay: Intracellular Calcium Measurements: […] Fluorescence is measured for each well at 1 second intervals, and the height of each fluorescence peak is compared to the height of the fluorescence peak induced by 3 nM orexin-A with vehicle in place of antagonist. […] The calculated IC50 values may fluctuate depending on the daily cellular assay performance. […]
metric: IC50 (nM)
Write the answer as a number in nM, unit excluded.

compound: CCOc1c(F)cccc1[C@@H]1C[C@H](F)C(=O)N1Cc1ccc(OC(F)(F)F)cc1 (racemic)
reading: 1150

Input line: Short answer please: IC50, human orexin-1 receptor (Homo sapiens (Human), UniProt O43613), entry O=C1CCCC(c2ccnn2-c2ccccc2)N1Cc1cccc(-c2ccccc2)c1 (stereo not shown)
Output line: 654

Input line: Proceed to COc1ncnc(OC)c1C1CCCC(=O)N1Cc1cccc(-c2csc(C)n2)c1 (stereo not shown)
Output line: 1030

Input line: Proceed to CCOc1cccc(F)c1[C@@H]1C[C@H](F)C(=O)N1Cc1ccc(OC(F)(F)F)c(Cl)c1 (racemic)
Output line: 724

Input line: Proceed to COc1ccc(Cl)c(OC)c1[C@@H]1C[C@@H](O)C(=O)N1Cc1ccc(OC(F)(F)F)cc1 (racemic)
Output line: 1100

Input line: Proceed to COc1cccc(OC)c1C1CCCC(=O)N1Cc1cc(-c2ccccc2)on1 (stereo not shown)
Output line: 688

Input line: Proceed to Cc1nc(-c2cccc(CN3C(=O)C(C)CC3c3ccccc3-c3ccccc3)c2)cs1 (stereo not shown)
Output line: 103

---

- assayed target: human orexin-1 receptor (Homo sapiens (Human), UniProt O43613)
- assay text: In vitro assay: intracellular calcium measurements (FLIPR), antagonistic activity
- Assay type: cell-based
- experimental conditions: CHO cells, 3 nM orexin-A, compound incubation 120 min; marked values are geometric means of n = 2-6; read-out: IC50 OX1
- Method: In Vitro Assay: Intracellular Calcium Measurements: […] Fluorescence is measured for each well at 1 second intervals, and the height of each fluorescence peak is compared to the height of the fluorescence peak induced by 3 nM orexin-A with vehicle in place of antagonist. […] The calculated IC50 values may fluctuate depending on the daily cellular assay performance. […]
Below is a list of entries, each paired with its recorded pIC50 value.
// pIC50 is dimensionless: -log10 of concentration (M)

Please review the following examples before continuing.
compound: COc1cccc(OC)c1C1CC(C)C(=O)N1Cc1ccc(OC(F)(F)F)c(F)c1 (centres unmarked)
assayed target: human orexin-1 receptor (Homo sapiens (Human), UniProt O43613)
pIC50: 6.82
--
compound: COc1cccc(OC)c1C1CCCC(=O)N1Cc1cccc(-c2csc(C)n2)c1 (centres unmarked)
assayed target: human orexin-1 receptor (Homo sapiens (Human), UniProt O43613)
pIC50: 8.52
--
compound: COc1cncc(OC)c1C1CCCC(=O)N1Cc1csc(-c2ccccc2)n1 (centres unmarked)
assayed target: human orexin-1 receptor (Homo sapiens (Human), UniProt O43613)
pIC50: 6.21
--
compound: COc1cccc(OC)c1C1CCCC(=O)N1Cc1cccc(N2CCOCC2)c1 (centres unmarked)
assayed target: human orexin-1 receptor (Homo sapiens (Human), UniProt O43613)
pIC50: 6.68

Could you now look at the following compound, please?
Input line: Entry COc1cccc(OC)c1C1CC(C)C(=O)N1Cc1cccc(-c2csc(C)n2)c1 (centres unmarked) : reported pIC50 = ?
Output line: 8.70
